- System: HIV-1 93IN101
- METHOD: Anti-HIV efficacy in human PBMCs, reverse transcriptase activity
- Assay type: cell-based
- APPLIED CONDITIONS: HIV-1 93IN101, PBMCs
PROPERTY MEASURED: Antiviral index (TC50/IC50)

// query Answer briefly: Antiviral index (TC50/IC50) recorded on HIV-1 93IN101 for CCOc1ccc(NC(=O)Cc2cn3ccsc3n2)cc1S(=O)(=O)N1CCCCC1
// result 3.00

// query Answer briefly: Antiviral index (TC50/IC50) recorded on HIV-1 93IN101 for COc1ccccc1-c1noc(=O)n1-c1cccc(C(F)(F)F)c1 [ITI-367, reference compound]
// result >2.39

// query Answer briefly: Antiviral index (TC50/IC50) recorded on HIV-1 93IN101 for O=C(CNC(=O)COc1ccccc1)NCc1ccc(C(=O)N2CCCCC2)cc1
// result > 5.56

// query Answer briefly: Antiviral index (TC50/IC50) recorded on HIV-1 93IN101 for Cc1ccc(NC(=O)CN2CCN(Cc3nc(-c4ccc(F)cc4)no3)CC2)cc1
// result > 6.13
